Here, each record is paired with measured Papp A→B data.
assay: Apparent permeability coefficient of the compound across apical to basolateral side in dog MDCK cells by high-throughput analysis; assay type: ADME, cell-based, Canis lupus familiaris
Report only the number, with the unit ×10⁻⁶ cm/s understood.

chem.smiles: COC[C@H](c1cnn2cc([C@@H](Nc3cc(C)on3)C3CCC(F)(F)CC3)nc2c1)N1C[C@@H](C(F)(F)F)NC1=O
metric: Papp A→B
units.label: ×10⁻⁶ cm/s
obs.value: 3.3
//
chem.smiles: COC[C@H](c1cnn2cc([C@@H](NC(=O)c3nonc3C)C3CCC(F)(F)CC3)nc2c1)N1C[C@@H](C(F)(F)F)NC1=O
metric: Papp A→B
units.label: ×10⁻⁶ cm/s
obs.value: 11

Field request: Papp A→B | item: `COC[C@H](c1cnn2cc([C@@H](NC(=O)/C(F)=C3\CCOC3)C3CCC(F)(F)CC3)nc2c1)N1C[C@@H](C(F)(F)F)NC1=O`
7.4
